test system: multiple myeloma cell line NCl-H929; assay: H929 Cell Viability Assay; format: cell-based, human; conditions: 48 hr, H929, Celltiter-Glo
pEC50: −log10 of the molar value.
parameter.measured: pEC50

compound	test.result
Cc1cc(F)ccc1N1CCN(S(=O)(=O)N2CCCN(CC3CCCCC3)CCCN(S(=O)(=O)c3ccc(N(C)C)cc3)C[C@H](C)C2)C(C)C1 (stereo in doubt) [A163]	4.87

====

Assay: In Vitro Microsome Stability Assay (monkey)
Format: in vitro ADME
Conditions: monkey liver microsomes, 30 min w/ NADPH
Experimental: Potassium phosphate (423 μL of a 0.1 M solution) was added to 8-strip deep well tubes followed by human, mouse, rat, or monkey microsomes (25 μL of a 20 mg/mL solution). The tubes were then placed on ice and the test article (2 μL of a 0.25 mM solution in DMSO) was added. […] Liver microsome stability is assessed by the % remaining of compound at 30 min which is calculated using the following equation: [(AUCanalyteT=30/AUCIS)/(AUCanalyteT=0/AUCIS)]*100 […]
parameter.measured: Liver Microsome Stability-% Left after 30 min w/ NADPH (%) Monkey

compound	test.result
C[C@H]1CN(S(=O)(=O)c2ccc(N(C)C)cc2)CCCN(CC2CCCCC2)CCCN(S(=O)(=O)N2CCN(C(=O)c3ccccc3)CC2)C1 [A100]	0.04
COc1cc(F)cc(N2CCN(S(=O)(=O)N3CCCN(CC4CCCCC4)CCCN(S(=O)(=O)c4ccc(N(C)C)cc4)CC4(CC4)C3)C[C@H]2C)c1 [A195]	32.8
CN(C)c1ccc(S(=O)(=O)N2C/C=C/CN(S(=O)(=O)N3CCC(c4ccccc4)CC3)CCCN(CC3CCCCC3)CCC2)cc1 [B9]	0.26
C[C@H]1CN(S(=O)(=O)c2ccc(N(C)C)cc2)CCCNCCCN(S(=O)(=O)N2CCc3cc(Cl)ccc3C2)C1 [A183]	0.75
C[C@H]1CN(S(=O)(=O)c2ccc(N(C)C)cc2)CCCN(C(=O)OCc2ccccc2)CCCN(S(=O)(=O)N2CCc3cc(Cl)ccc3C2)C1 [A103]	38.5
C[C@H]1CN(S(=O)(=O)c2ccc(N(C)C)cc2)CCCN(CC2=CCCC2)CCCN(S(=O)(=O)N2CCc3cc(Cl)ccc3C2)C1 [A142]	3.89
